# Test system: Vero
# ASSAY INFO: Cytotoxicity against african green monkey Vero cells
# Assay type: cell-based
# PROTOCOL CONDITIONS: Chlorocebus sabaeus
pIC50: −log10 of the molar value.
READOUT LABEL: pIC50

>>> experimental_result("CC(O)c1cc2c(o1)C(=O)c1ccccc1C2=O (stereo unspecified)")
4.82

Values were extracted from ChEMBL document CHEMBL1144065.
